- assay-system: T1, recombinant CD47 (recCD47), SinoBiological 12283-H27H-B, biotinylated (human, UniProt Q08722 19-139, biotinylated (AVI-tag))
- T1 construct: Bought protein, 17 kDa; At 17 kDa it can only be a part of it; also called recombinant biotinylated CD47; not shown: C-terminal His- and AVI-tag
- T1 sequence (Q08722 19-139 limits assumed): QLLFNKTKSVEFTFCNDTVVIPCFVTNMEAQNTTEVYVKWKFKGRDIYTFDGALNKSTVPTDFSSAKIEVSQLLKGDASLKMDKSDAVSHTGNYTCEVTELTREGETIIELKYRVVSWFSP
- assay-details: SPR Biacore S200, single-cycle, recCD47 on SA chip 100 RU, antibody as analyte, 25 C, 1:1 model;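 note: antibodies were injected over the captured CD47 at a series of concentrations, and KD was derived as the dissociation rate constant divided by the association rate constant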
measured-property: kon (M⁻¹ s⁻¹)
Answers are plain numbers, in M⁻¹ s⁻¹.

binder: CO206 humanized IgG4 anti-CD47 antibody (antibody, V domains shown, also called huCO-mAb) VH: QVQLVQSGSELKKPGASVKVSCKASGYTFTNFGMHWVRQAPGQGLEWMGWINTYTGEPTYTDDFKGRFVFSLDTSVSTAYLQISSLKAEDTAVYYCTRGDYRYGDSWGQGTTVTVSS VL: DIVMTQTPLSLSVTPGQPASISCRSSQSLVHSNGKTYLHWYLQKPGQSPQLLIYRVSNRFSGVPDRFSGSGSGTDFTLKISRVEAEDVGVYYCSQSTHVPFTFGQGTKLEIK
kon / M⁻¹ s⁻¹: 5.1e+06
//
binder: CO204 humanized IgG4 anti-CD47 antibody (antibody, V domains shown, also called huCO-mAb) VH: QVQLVQSGSELKKPGASVKVSCKASGYTFTNFGMHWVRQAPGKGLKWMGWINTYTGEPTYTDDFKGRFVFSLDTSVSTAYLQISSLKAEDTAVYYCTRGDYRYGDSWGQGTTVTVSS VL: DIVMTQTPLSLSVTPGQPASISCRSSQSLVHSNGKTYLHWYLQKPGQPPQLLIYRVSNRFSGVPDRFSGSGSGTDFTLKISRVEAEDVGVYYCSQSTHVPFTFGQGTKLEIK
kon / M⁻¹ s⁻¹: 5.7e+06

Sample CO209 humanized IgG4 anti-CD47 antibody (antibody, V domains shown, also called huCO-mAb) VH: QVQLVQSGSELKKPGASVKVSCKASGYTFTNFGMHWVRQAPGQGLEWMGWINTYTGEPTYTDDFKGRFVFSLDTSVSTAYLQISSLKAEDTAVYYCARGDYRYGDSWGQGTTVTVSS VL: DIVMTQTPLSLSVTPGQPASISCRSSQSLVHSNGKTYLHWYLQKPGQSPKLLIYRVSNRFSGVPDRFSGSGSGTDFTLKISRVEAEDVGVYYCSQSTHVPFTFGQGTKLEIK — what was its kon? 8.2e+06
